# target_desc: T1, RNase R ΔHTH-K (Escherichia coli BL21(DE3), UniProt P21499 87-725)
# T1 sequence: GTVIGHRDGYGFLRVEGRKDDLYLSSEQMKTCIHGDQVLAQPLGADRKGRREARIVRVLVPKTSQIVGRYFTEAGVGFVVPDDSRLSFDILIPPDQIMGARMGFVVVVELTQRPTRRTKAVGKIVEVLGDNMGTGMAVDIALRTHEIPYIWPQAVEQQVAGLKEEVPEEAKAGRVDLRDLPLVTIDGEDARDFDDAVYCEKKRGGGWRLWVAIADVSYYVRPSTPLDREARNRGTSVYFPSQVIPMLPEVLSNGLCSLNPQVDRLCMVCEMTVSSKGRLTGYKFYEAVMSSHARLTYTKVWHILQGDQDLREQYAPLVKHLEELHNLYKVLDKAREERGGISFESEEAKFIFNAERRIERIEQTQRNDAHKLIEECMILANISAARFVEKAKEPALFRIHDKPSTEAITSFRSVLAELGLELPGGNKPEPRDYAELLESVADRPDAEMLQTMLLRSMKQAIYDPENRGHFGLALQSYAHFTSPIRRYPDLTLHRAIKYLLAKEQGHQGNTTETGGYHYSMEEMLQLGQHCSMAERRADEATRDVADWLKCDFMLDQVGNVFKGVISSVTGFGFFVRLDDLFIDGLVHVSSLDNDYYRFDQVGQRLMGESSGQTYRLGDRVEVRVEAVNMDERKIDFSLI
# measurement_description: fluorescence polarization
recorded_endpoint: pKd
Notebook: values listed as pKd are -log10 of the concentration (mol/L).

Q. Tell me its pKd given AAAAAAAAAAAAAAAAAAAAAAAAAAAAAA (ssRNA) [Cy3-poly(A)30 ssRNA] as the entry.
A. 8.07
